# Tested on: passive cutaneous anaphylaxis (PCA) reaction
# Procedure details: Effect on homologous passive cutaneous anaphylaxis (PCA) reaction in rats
# Assay type: in vivo
# Assay setup: Rattus norvegicus, po, 0.5 h; test compounds, 100 mg/kg p.o., 1 hour before induction of anaphylaxis, male wistar rats
Form field: inhibition in vivo at 100 mg/kg (one value per entry).
// note: answer is a bare numeric in %

Illustrative cases are given below, each with its answer.
COc1c(O)c(=O)[nH]c2cc(N)ccc12 [compound 14]    44
Cn1c(=O)c(O)c(O)c2ccc(N)cc21 [compound 8]    48
COc1c(O)c2ccc(N)cc2n(C)c1=O [compound 19]    44

Data point: C=CCOc1c(O)c2ccc(NC)cc2n(C)c1=O [compound 29] ; inhibition in vivo at 100 mg/kg = 42

Data point: CCCCCCOc1c(O)c2ccc(NC(=O)/C=C/c3cc(OC)c(O)c(OC)c3)cc2n(C)c1=O [compound 43] ; inhibition in vivo at 100 mg/kg = 49
